- assay.name: in vitro
- test.parameters: human, hela cells, % viability
measured.parameter: viability at 28.5 h, 10 µM (%)
Field format: number, assumed %, no unit text.

Please report viability at 28.5 h, 10 µM for the following molecule: NC(=O)COc1ccccc1O 111

Please report viability at 28.5 h, 10 µM for the following molecule: Cc1cccc(-c2noc([C@@H]3C[C@@H](O)CN3Cc3ccccn3)n2)c1 98.2

Please report viability at 28.5 h, 10 µM for the following molecule: COc1cccc2sc(Nc3nc(-c4cccnc4)cs3)nc12 98.5

Please report viability at 28.5 h, 10 µM for the following molecule: N#Cc1ccc(C(=O)N2CC[C@H]3NC(=O)N(c4ccccc4)C(=O)[C@H]32)cc1 80.5

Please report viability at 28.5 h, 10 µM for the following molecule: Cc1cc2cc(C(=O)NCC3CCCN(C(C)C)C3)ccc2o1 (centres unmarked) 105

---

- assay.name: in vitro
- test.parameters: human, hela cells, % viability
# viability at 28.5 h, 10 µM values compiled below
Field format: number, assumed %, no unit text.

Past entries and their recorded results:
Cc1ccc(C(=O)Nc2ccc3c(c2)OCO3)c(N2CCOCC2)n1 : 92.9
Cc1csc(NC(=O)c2ncoc2-c2cccs2)n1 : 88.2
Cc1cc2ncn(CC(=O)Nc3c(C)noc3C)c2cc1C : 79.5
CCN(CC)C(=O)CCc1nc2sc3c(c2c(=O)[nH]1)CCCC3 : 87.6
OCCN1CCN(c2nccnc2-c2ccncc2)CC1 : 89.2

Please report viability at 28.5 h, 10 µM for the following compound: CCc1nc2ccc(C(=O)N(C)Cc3ccccc3)cn2c1N(C=O)CC 102

Please report viability at 28.5 h, 10 µM for the following compound: CCOc1ccc(N(Cc2cc3cc(C)ccc3nc2O)S(=O)(=O)c2ccccc2)cc1 120

Please report viability at 28.5 h, 10 µM for the following compound: CCN(CC)CCN1CCN(c2cc(-c3ccsc3)ncn2)CC1 93.7

Please report viability at 28.5 h, 10 µM for the following compound: CC(C)[C@@H](CO)Nc1nc(-c2cccc(Br)c2)cnc1N 99.5

Please report viability at 28.5 h, 10 µM for the following compound: Cc1ccc2[nH]cc(CCN3CCC4(C3)OCCc3c4[nH]c4ccccc34)c2c1 (centres unmarked) 84.7

Please report viability at 28.5 h, 10 µM for the following compound: CCOC(=O)c1c(NC(=O)CSc2nnnn2C)sc(C)c1C 103

Please report viability at 28.5 h, 10 µM for the following compound: O=C(c1ccccc1Cl)N1N=C(c2cccnc2)CC1c1ccccc1O (centres unmarked) 102

Please report viability at 28.5 h, 10 µM for the following compound: O=C(NCc1nnc(-c2cccs2)o1)C1(c2ccccc2F)CC1 83.2

Please report viability at 28.5 h, 10 µM for the following compound: COc1ccc(CN(Cc2ccccc2OC)[C@@H]2COC[C@H]2c2ccc(F)cc2)cc1 105

Please report viability at 28.5 h, 10 µM for the following compound: O=C(/C=C\c1ccc(Cl)cc1Cl)N1CCN(Cc2ccc3c(c2)OCO3)CC1 97.3

---

- assay.name: in vitro
- test.parameters: human, hela cells, % viability
# viability at 28.5 h, 10 µM values compiled below
Field format: number, assumed %, no unit text.

Past entries and their recorded results:
O=C(Nc1ccncc1)c1cc(-c2ccncc2)nc2ccccc12 [CBK287787] : 100
Nc1nnc(CC(=O)N/N=C/c2cc(Br)c(O)c(Br)c2O)s1 [CBK262131] : 96

Here's the next entry for you.
Please report viability at 28.5 h, 10 µM for the following molecule: CC1(C)CC(=O)C2=C(C1)Nc1ncnn1C2c1ccccc1F (stereo not shown) [CBK266446] 88

---

- assay.name: in vitro
- test.parameters: human, hela cells, % viability
measured.parameter: viability at 28.5 h, 10 µM (%)
Field format: number, assumed %, no unit text.

Past entries and their recorded results:
Cc1cc(NC(=O)c2cccc(C#N)c2)c2ccccc2n1 [CBK116267] : 101
NC(=O)c1c(NC(=O)c2ccc(COc3ccc4ccccc4c3)o2)sc2c1CCCC2 [CBK265871] : 88.5
c1c2c(cc3sc(N4CCOCC4)nc13)OCO2 [CBK287494] : 97.7

Please report viability at 28.5 h, 10 µM for the following compound: COc1ccc(CC(=O)Nc2ccc(OCC(=O)O)cc2)cc1 [CBK264244] 103

Please report viability at 28.5 h, 10 µM for the following compound: O=C(NC1CC1)[C@@H]1C=CCN1S(=O)(=O)c1ccccc1Cl [CBK285479] 103

Please report viability at 28.5 h, 10 µM for the following compound: N#Cc1cccc(C(=O)NCCc2cn3c(n2)CCCC3)c1 [CBK305046] 93.9

Please report viability at 28.5 h, 10 µM for the following compound: O=C(CSc1nc(Nc2ccccc2)nc(N2CCOCC2)n1)Nc1ccc2c(c1)OCO2 [CBK268320] 96.5

Please report viability at 28.5 h, 10 µM for the following compound: CCOC(=O)c1cccc(-c2ccsc2)n1 [CBK149244] 97.6

---

- assay.name: in vitro
- test.parameters: human, hela cells, % viability
measured.parameter: viability at 28.5 h, 10 µM (%)
Field format: number, assumed %, no unit text.

Past entries and their recorded results:
NC(=O)CCN(CCC(N)=O)S(=O)(=O)c1ccc(N)cc1 [CBK262134] : 118
Cn1nccc1C(=O)NC(Cc1cccs1)c1nccs1 (centres unmarked) [CBK285055] : 102
c1cnc2c(OCc3nc4ccccc4[nH]3)cccc2c1 [CBK268556] : 74.6
O=S(=O)(Nc1cccc2nsnc12)c1cccs1 [CBK017018] : 75.6
CCCn1c(SCC(=O)Nc2scc(CC(C)C)c2C(=O)OCC)n[nH]c1=O [CBK295615] : 98.1
CCOC(=O)[C@@]12CC=CCN(C(=O)c3cccnc3)[C@@H]1CCC2 [CBK284575] : 90.8
CN1CCC(CNC(=O)Cn2ccc3ccc(F)cc32)(N(C)C)CC1 [CBK282569] : 107
O=C(O)c1ccc(NS(=O)(=O)Cc2ccccc2[N+](=O)[O-])cc1 [CBK034054] : 90.4

Please report viability at 28.5 h, 10 µM for the following compound: COc1nccnc1-c1cnn(C)c1 [CBK107069] 89.6

Please report viability at 28.5 h, 10 µM for the following compound: CC(=O)N1CCC(O)(Cn2c(C3CC3)cc3cccnc32)CC1 [CBK283082] 111

Please report viability at 28.5 h, 10 µM for the following compound: COc1ccc(-c2sc(C(=O)O)c(C)c2C#N)cc1 [CBK019922] 101

Please report viability at 28.5 h, 10 µM for the following compound: CCCc1ccc(S(=O)(=O)n2ccn(-c3ccc4c(c3)OCO4)c2=O)cc1 [CBK106634] 94.6

---

# viability at 28.5 h, 10 µM values compiled below
- assay.name: in vitro
- test.parameters: human, hela cells, % viability

Past entries and their recorded results:
Cc1oc(-c2ccccc2)cc1C(=O)Nc1cc2ccccc2c(N2CCNCC2)n1 [CBK038938T] : 104%
COc1ccc(C(NC(=O)c2cn3ccsc3n2)[C@H]2C[C@H](O)C2)cn1 (stereo partly shown) : 101%
c1ccc(-c2nccnc2NCC2CC2)cc1 : 88.4%
CC(=O)c1cn(CCC(=O)NC2CCCN(C)C2)c2ccccc12 (stereo not shown) : 81.3%
Cc1nc(NS(=O)(=O)c2cc(Cl)sc2Cl)sc1C(=O)N1CCN(C)CC1 : 106%
Fc1ccc(Oc2nccnc2N2CCN(CC3CC3)CC2)cc1 [CBK083033T] : 91.8%
O=c1nc(O)c(I)cn1C1OC(CO)C(O)C1O (stereo not shown) : 82.3%
N#Cc1cccc(C(=O)N2CCN(c3ncccn3)CC2)c1 : 82.2%

Please report viability at 28.5 h, 10 µM for the following compound: COc1ccc(Sc2nc3cc(Cl)c(Cl)cc3nc2NC(C)C)cc1OC 103%

Please report viability at 28.5 h, 10 µM for the following compound: CN1CCC(N2CCN(C(=O)NCc3ccc(Cl)c(Cl)c3)CC2)CC1 92.5%

---

- assay.name: in vitro
- test.parameters: human, hela cells, % viability
measured.parameter: viability at 28.5 h, 10 µM (%)
Field format: number, assumed %, no unit text.

Past entries and their recorded results:
Cn1c(=O)cc(Oc2ccc(F)cc2)c2ccccc21 : 88.1
O=C(CN1C(=O)C2C3C=CC(C3)C2C1=O)NCc1ccco1 (stereo not shown) : 96.4
O=c1c2sccc2nc2n1CCN(Cc1ccc(F)c(F)c1)CC2 : 103

Please report viability at 28.5 h, 10 µM for the following molecule: O=C(NCCCN1CCOCC1)c1nn2c(C(F)(F)F)cc(-c3cccs3)nc2c1Cl 82

Please report viability at 28.5 h, 10 µM for the following molecule: NS(=O)(=O)c1ccc(NC(=O)CCCOc2ccc(Cl)cc2Cl)cc1 104

Please report viability at 28.5 h, 10 µM for the following molecule: CNc1ccc(C(O)(C(F)(F)F)C(F)(F)F)cc1C(O)(C(F)(F)F)C(F)(F)F 96.6

Please report viability at 28.5 h, 10 µM for the following molecule: c1ccc(CCn2nnnc2CN2CCN(c3ccccc3)CC2)cc1 95.2

Please report viability at 28.5 h, 10 µM for the following molecule: CSCCN1CCC(Oc2nccnc2OCc2cc(C)on2)CC1 [CBK082966T] 89.7

Please report viability at 28.5 h, 10 µM for the following molecule: CSc1nc(N)n(-c2cc(C(F)(F)F)cc(C)n2)n1 89.9

Please report viability at 28.5 h, 10 µM for the following molecule: Cn1ccnc1Sc1ncccc1C(F)(F)F 91.2

Attribution: paper PMC12040169
